test: Plasma clearance in Balb/C mouse at 1.9 mg/kg, iv up to 24 hrs by LC-MS analysis; format: ADME, organism-based

Mol: COc1ncc(-c2nc(C(=O)NC(=N)N)c(N)nc2N)cn1
Unit Descriptor: mL/min/kg
clearance: 38

---

test: in vitro; conditions: Balb/C, mouse, plasma; at 1 µg/mL
Description: Plasma protein binding in Balb/C mouse at 1 ug/ml after 4.2 hrs by LC-MS analysis
Attribute: fraction unbound at […], 1 ug/ml

Molecule: COc1ncc(-c2nc(C(=O)NC(=N)N)c(N)nc2N)cn1
fraction unbound at […], 1 ug/ml: 0.4
--
Molecule: N=C(N)NC(=O)c1nc(-c2cc3ccccc3o2)c(N)nc1N
fraction unbound at […], 1 ug/ml: 0.06
--
Molecule: N=C(N)NC(=O)c1nc(Cl)c(N2CCCCCC2)nc1N [N,N-HEXAMETHYLENEAMILORIDE]
fraction unbound at […], 1 ug/ml: 0.03
--
Molecule: N=C(N)NC(=O)c1nc(-c2cc3ccccc3o2)c(N2CCCCCC2)nc1N
fraction unbound at […], 1 ug/ml: 0.02

---

assay: AUC(0 to infinity) in Balb/C mouse plasma at 2.6 mg/kg, iv up to 24 hrs by LC-MS analysis; type: ADME, organism-based; parameters: route intravenous, dose 2.6 mg/kg, time <=24

Mol: N=C(N)NC(=O)c1nc(-c2cc3ccccc3o2)c(N2CCCCCC2)nc1N
Unit Descriptor: µM·h
AUC(0-inf): 1.6

---

test: Clearance in Balb/C mouse blood at 1.9 mg/kg, iv up to 24 hrs by LC-MS analysis; type: ADME, organism-based; settings: whole blood

Mol: COc1ncc(-c2nc(C(=O)NC(=N)N)c(N)nc2N)cn1
Unit Descriptor: mL/min/kg
clearance: 41

---

test: Clearance in Sprague-Dawley rat blood at 2.5 mg/kg, iv up to 24 hrs by LC-MS analysis; type: ADME, organism-based; conditions: whole blood

Compound: N=C(N)NC(=O)c1nc(Cl)c(N2CCCCCC2)nc1N [N,N-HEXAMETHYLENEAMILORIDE]
clearance [mL/min/kg]: 46.2

---

assay: Apparent half life in Balb/C mouse at 2.6 mg/kg, iv up to 24 hrs by LC-MS analysis; type: ADME, organism-based; settings: in vivo, read-out: t1/2(app) (converted)
Measured Parameter: half-life (h)

Mol: N=C(N)NC(=O)c1nc(-c2cc3ccccc3o2)c(N2CCCCCC2)nc1N
Numeric Value: 1.7

---

experiment: Ratio of drug level in blood to plasma in Balb/C mouse plasma at 2.6 mg/kg, iv up to 24 hrs by LC-MS analysis; format: ADME, organism-based; conditions: blood and plasma

Mol: N=C(N)NC(=O)c1nc(-c2cc3ccccc3o2)c(N2CCCCCC2)nc1N
blood plasma ratio at 24 h: 1.4

---

assay: Plasma clearance in Sprague-Dawley rat at 3.9 mg/kg, iv up to 24 hrs by LC-MS analysis; format: ADME, organism-based

Mol: N=C(N)NC(=O)c1nc(-c2cc3ccccc3o2)c(N2CCCCCC2)nc1N
clearance [mL/min/kg]: 56.9

---

assay: Volume of distribution at steady state in Balb/C mouse plasma at 3.5 mg/kg, iv up to 24 hrs by LC-MS analysis; type: ADME, organism-based; settings: read-out: Vdss

Mol: N=C(N)NC(=O)c1nc(-c2cc3ccccc3o2)c(N)nc1N
Vd: 4.1 L/kg
